Data provenance: ChEMBL document CHEMBL1961873

- assay_target: Tyrosine-protein kinase FRK (Homo sapiens) (UniProt P42685);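 further: values are mean inhibition of PTK5 (FRK) kinase activity from the GSK PKIS screening set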
- Sequence (P42685 whole entry): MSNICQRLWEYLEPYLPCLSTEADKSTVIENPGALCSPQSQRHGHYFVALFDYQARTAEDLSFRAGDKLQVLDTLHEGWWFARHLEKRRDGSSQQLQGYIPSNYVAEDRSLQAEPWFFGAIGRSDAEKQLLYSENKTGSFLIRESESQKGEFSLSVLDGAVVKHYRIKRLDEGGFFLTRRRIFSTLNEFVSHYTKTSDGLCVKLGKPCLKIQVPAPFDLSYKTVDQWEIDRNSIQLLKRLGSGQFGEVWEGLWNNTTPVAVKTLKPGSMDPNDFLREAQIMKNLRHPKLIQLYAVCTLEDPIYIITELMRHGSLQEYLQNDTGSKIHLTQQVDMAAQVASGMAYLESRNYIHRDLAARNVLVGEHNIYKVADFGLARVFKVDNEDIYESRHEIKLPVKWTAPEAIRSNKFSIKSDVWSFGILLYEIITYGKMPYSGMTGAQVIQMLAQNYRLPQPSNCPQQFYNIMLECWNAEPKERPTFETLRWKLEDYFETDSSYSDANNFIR
- run_parameters: at 0.1 µM
Okay, here is how we bin by inhibition: group 1 (below 0.8%), group 2 (0.8% to below 2%), group 3 (2% or more)

mol: COc1cc2ncn(-c3cc(OCc4ccccc4C(F)(F)F)c(C(=O)N(C)C)s3)c2cc1OC
group_label: group 1
--
mol: Fc1ccc(-c2cc(-c3c[nH]nc3-c3ccccn3)ccn2)cc1
group_label: group 3
--
mol: N#Cc1c(NC(=O)CN2CCOCC2)sc2c1CCCC2
group_label: group 3
--
mol: CN1CCC(n2cnc(-c3ccc(F)cc3)c2-c2ccnc(Nc3ccccc3)n2)CC1
group_label: group 2
--
mol: CN(C)CCOc1ccc(-c2nc(-c3ccncc3)c(-c3ccc4c(c3)CC/C4=N\O)[nH]2)cc1
group_label: group 3
--
mol: CN1CCC(n2cnc(-c3ccc(F)cc3)c2-c2ccnc(N)n2)CC1
group_label: group 1
--
mol: COc1cc(Nc2nccc(Nc3ccc4c(C)n[nH]c4c3)n2)cc(OC)c1OC
group_label: group 2
--
mol: N#Cc1c(NC(=O)c2ccc(F)cc2)sc2c1CCCC2
group_label: group 1
--
mol: COc1ccc(-c2cc(-c3c[nH]nc3-c3ccccn3)ccn2)cc1
group_label: group 3

----------
- assay_target: Serine/threonine-protein kinase Nek7 (Homo sapiens) (UniProt Q8TDX7);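 further: reported values are mean inhibition of NEK7 from the GSK PKIS kinase screening panel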
- Sequence (Q8TDX7 whole entry, looked up): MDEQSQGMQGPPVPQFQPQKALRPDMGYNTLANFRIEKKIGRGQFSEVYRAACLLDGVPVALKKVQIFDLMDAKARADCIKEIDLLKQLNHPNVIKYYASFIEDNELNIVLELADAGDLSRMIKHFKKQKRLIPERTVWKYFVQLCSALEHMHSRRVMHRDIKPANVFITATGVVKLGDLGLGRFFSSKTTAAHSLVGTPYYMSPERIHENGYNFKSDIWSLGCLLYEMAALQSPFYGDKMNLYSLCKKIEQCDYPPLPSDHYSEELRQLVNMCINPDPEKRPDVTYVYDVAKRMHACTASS
- run_parameters: at 1 µM
If the reported inhibition equals or exceeds 3%, assign label 1. If not, assign label 0.

mol: CC(C)(CO)CNC(=O)c1ccc2c(c1)/C(=N/Nc1ccc(S(N)(=O)=O)cc1)C(=O)N2
group_label: label 0

mol: CNC(=O)c1cc(-c2ccc(F)cc2)cc(-c2ccc(S(=O)(=O)N3CCCC3)cc2)c1N
group_label: label 1

mol: c1ccc(-c2nc3n(c2-c2ccc4c(c2)OCO4)CCC3)nc1
group_label: label 1

mol: CCN1CCC(CC(=O)Nc2n[nH]c3nnc(-c4cccc(F)c4F)cc23)CC1
group_label: label 0

mol: CCn1c(-c2nonc2N)nc2cnc(Oc3cccc(NC(=O)c4ccc(N(C)C)cc4)c3)cc21
group_label: label 0

----------
- assay_target: Tyrosine-protein kinase TXK (Homo sapiens) (UniProt P42681)
- Sequence (P42681 whole entry): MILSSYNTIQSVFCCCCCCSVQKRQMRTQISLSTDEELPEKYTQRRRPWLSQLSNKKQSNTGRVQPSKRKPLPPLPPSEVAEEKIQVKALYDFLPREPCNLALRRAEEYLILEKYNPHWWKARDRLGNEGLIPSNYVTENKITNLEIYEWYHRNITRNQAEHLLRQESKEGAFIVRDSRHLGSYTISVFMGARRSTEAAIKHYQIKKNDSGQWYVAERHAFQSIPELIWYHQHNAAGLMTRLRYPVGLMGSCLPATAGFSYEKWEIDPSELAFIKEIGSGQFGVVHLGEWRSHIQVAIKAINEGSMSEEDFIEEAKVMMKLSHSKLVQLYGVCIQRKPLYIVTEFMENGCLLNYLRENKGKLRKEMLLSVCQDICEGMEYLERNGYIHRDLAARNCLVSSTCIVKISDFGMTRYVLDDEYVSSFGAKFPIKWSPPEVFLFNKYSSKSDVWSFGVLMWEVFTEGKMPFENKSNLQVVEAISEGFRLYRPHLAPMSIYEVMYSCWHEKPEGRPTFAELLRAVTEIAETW
- run_parameters: at 0.1 µM

mol: Clc1ccc(-c2nn3ncccc3c2-c2ccnc(Nc3ccccc3)n2)cc1
assay_target: Tyrosine-protein kinase TXK (Homo sapiens) (UniProt P42681)
inhibition, %: 3.54
//
mol: N#Cc1c(NC(=O)CN2CCOCC2)sc2c1CCCC2
assay_target: Tyrosine-protein kinase TXK (Homo sapiens) (UniProt P42681)
inhibition, %: 2.2
//
mol: CN(C)CCOc1ccc(-c2nc(-c3ccncc3)c(-c3ccc4c(c3)CC/C4=N\O)[nH]2)cc1
assay_target: Tyrosine-protein kinase TXK (Homo sapiens) (UniProt P42681)
inhibition, %: 2.32
//
mol: CN1CCC(n2cnc(-c3ccc(F)cc3)c2-c2ccnc(N)n2)CC1
assay_target: Tyrosine-protein kinase TXK (Homo sapiens) (UniProt P42681)
inhibition, %: 2.63
//
mol: CC(C)COC(=O)c1ccc2c(c1)/C(=C/Nc1ccc(S(N)(=O)=O)cc1)C(=O)N2
assay_target: Tyrosine-protein kinase TXK (Homo sapiens) (UniProt P42681)
inhibition, %: 1.73
//
mol: Fc1ccc(-c2nn3ncccc3c2-c2ccnc(Nc3ccc4c(c3)OCCO4)n2)cc1
assay_target: Tyrosine-protein kinase TXK (Homo sapiens) (UniProt P42681)
inhibition, %: 10.8
//
mol: Cc1cccc2c1NC(=O)/C2=N\Nc1ccc(S(N)(=O)=O)cc1
assay_target: Tyrosine-protein kinase TXK (Homo sapiens) (UniProt P42681)
inhibition, %: 4.98
//
mol: COC(=O)c1sc(-n2cnc3cc(OC)c(OC)cc32)cc1OCc1ccccc1C(F)(F)F
assay_target: Tyrosine-protein kinase TXK (Homo sapiens) (UniProt P42681)
inhibition, %: 2.16
//
mol: O=C(O[C@H]1CN[C@H](C#Cc2cc3ncnc(Nc4ccc(Cc5ccccc5)cc4)c3s2)C1)N1CCOCC1
assay_target: Tyrosine-protein kinase TXK (Homo sapiens) (UniProt P42681)
inhibition, %: -0.97
//
mol: COc1cc(Nc2nccc(Nc3ccc4c(C)n[nH]c4c3)n2)cc(OC)c1OC
assay_target: Tyrosine-protein kinase TXK (Homo sapiens) (UniProt P42681);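 further: each listed value is a mean percent inhibition of TXK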
inhibition, %: 23.9
